# System: HIV-1 replication
# Protocol: HIV-1 replication in HeLa-CD4-LTR-β-gal reporter cells
# Format: cell-based
# Test context: CC50/EC50

Chemical string: CCOC(=O)c1cn(Cc2ccc(F)cc2)c2ccc(OCc3ccc(Cl)c(Cl)c3)cc2c1=O
Comparison sign: =
SI (selectivity index = CC50/EC50): 1.4
--
Chemical string: O=C(O)c1cn(Cc2ccc(F)cc2)c2ccc(OCc3cccc(Cl)c3Cl)cc2c1=O
Comparison sign: >
SI (selectivity index = CC50/EC50): 15
--
Chemical string: CCOC(=O)c1cn(Cc2ccc(F)cc2)c2ccc(OCc3cccc(Cl)c3Cl)cc2c1=O
Comparison sign: =
SI (selectivity index = CC50/EC50): 1.2
--
Chemical string: O=C(O)c1cn(Cc2ccc(F)cc2)c2ccc(OCc3ccccc3)cc2c1=O
Comparison sign: >
SI (selectivity index = CC50/EC50): 8.6
--
Chemical string: O=C(O)c1cn(Cc2ccc(F)cc2)c2ccc(OCc3ccc(Cl)c(Cl)c3)cc2c1=O
Comparison sign: >
SI (selectivity index = CC50/EC50): 12.4

====

Measured IC50, listed per entry.
# Tested on: HIV-1 RT-associated RNase H activity (Human immunodeficiency virus type 1 group M subtype B)
# Construct: His-tagged p66/p51 HIV-1 RT group M subtype B; His; made in house; host or cells: Escherichia coli M15
# Protocol: biochemical
# Assay type: biochemical
# Test context: anti-RH activity (IC50 ± SD), HIV-1 RT-associated RNase H activity, dose-response curves, no preincubation
Value type: IC50 (µM)

Compound: CCOC(=O)c1cn(Cc2ccc(F)cc2)c2ccc(C#N)cc2c1=O [5b]
Comparison sign: >
Recorded value: 100

Compound: COc1ccc2c(c1)c(=O)c(C(=O)O)cn2Cc1ccc(F)cc1 [4h]
Comparison sign: >
Recorded value: 100

Compound: CCOC(=O)c1cn(Cc2ccc(F)cc2)c2ccc(OCc3ccc(-c4ccccc4)cc3)cc2c1=O [5s]
Comparison sign: >
Recorded value: 100

Compound: CCOC(=O)c1cn(Cc2ccc(F)cc2)c2ccc(/C=C/C(=O)c3ccccc3)cc2c1=O [5k]
Comparison sign: =
Recorded value: 15.3

Compound: CCOC(=O)/C=C/C(=O)/C=C/c1cccn1Cc1ccccc1Cl [compound 11, reference compound]
Comparison sign: =
Recorded value: 7.5

Compound: O=C(O)c1cn(Cc2ccc(F)cc2)c2ccc(OCc3cccc4ccccc34)cc2c1=O [4o]
Comparison sign: =
Recorded value: 1.51

Compound: N#Cc1ccc2c(c1)c(=O)c(C(=O)O)cn2Cc1ccc(F)cc1 [4b]
Comparison sign: >
Recorded value: 100

Compound: O=C(O)c1cn(Cc2ccc(F)cc2)c2ccc([N+](=O)[O-])cc2c1=O [4e]
Comparison sign: =
Recorded value: 56

Compound: O=C(O)c1cn(Cc2ccc(F)cc2)c2ccc(Oc3ccccc3)cc2c1=O [4i]
Comparison sign: =
Recorded value: 32

Compound: O=C(O)c1cn(Cc2ccc(F)cc2)c2ccc(OCc3ccc(-c4ccccc4)cc3)cc2c1=O [4s]
Comparison sign: =
Recorded value: 7.47

Compound: CCOC(=O)c1cn(Cc2ccc(F)cc2)c2ccc(S(C)(=O)=O)cc2c1=O [5f]
Comparison sign: >
Recorded value: 100

Compound: O=C(O)c1cn(Cc2ccc(F)cc2)c2ccc(OCc3ccc(Cl)c(Cl)c3)cc2c1=O [4n]
Comparison sign: =
Recorded value: 29.5

Compound: CC(C)c1ccc(O)c(=O)c(O)c1 [BTP, β-thujaplicinol, reference compound]
Comparison sign: =
Recorded value: 0.19

Compound: CCOC(=O)c1cn(Cc2ccc(F)cc2)c2ccc(OCc3ccc4ccccc4c3)cc2c1=O [5p]
Comparison sign: =
Recorded value: 19.6

Compound: CCOC(=O)c1cn(Cc2ccc(F)cc2)c2ccc(O)cc2c1=O [5g]
Comparison sign: >
Recorded value: 100

Compound: O=C(O)c1cn(Cc2ccc(F)cc2)c2ccc(C(F)(F)F)cc2c1=O [4c]
Comparison sign: >
Recorded value: 100

Compound: CCOC(=O)c1cn(Cc2ccc(F)cc2)c2ccc(OCc3cccc(Cl)c3Cl)cc2c1=O [5m]
Comparison sign: =
Recorded value: 24

Compound: CCOC(=O)c1cn(Cc2ccc(F)cc2)c2ccc(OCCCCc3ccccc3)cc2c1=O [5r]
Comparison sign: =
Recorded value: 28.4

Compound: O=C(O)c1cn(Cc2ccc(F)cc2)c2ccc(OCc3cccc(Cl)c3Cl)cc2c1=O [4m]
Comparison sign: =
Recorded value: 8.19

Compound: O=C(O)c1cn(Cc2ccc(F)cc2)c2ccc(OCc3ccc4ccccc4c3)cc2c1=O [4p]
Comparison sign: =
Recorded value: 30.3

Compound: CC(=O)c1ccc2c(c1)c(=O)c(C(=O)O)cn2Cc1ccc(F)cc1 [4d]
Comparison sign: =
Recorded value: 16.3

Compound: CCOC(=O)c1cn(Cc2ccc(F)cc2)c2ccc(OCc3ccccc3)cc2c1=O [5l]
Comparison sign: =
Recorded value: 8

Compound: CCOC(=O)c1cn(Cc2ccc(F)cc2)c2ccc(C(C)=O)cc2c1=O [5d]
Comparison sign: =
Recorded value: 11

Compound: O=C(O)c1cn(Cc2ccc(F)cc2)c2ccc(OCc3ccccc3)cc2c1=O [4l]
Comparison sign: =
Recorded value: 34

Compound: CN(C)CCCOc1ccc2c(c1)c(=O)c(C(=O)O)cn2Cc1ccc(F)cc1 [4j]
Comparison sign: =
Recorded value: 15.4

Compound: CCOC(=O)c1cn(Cc2ccc(F)cc2)c2ccc(OCc3ccc(OCc4ccccc4)cc3)cc2c1=O [5t]
Comparison sign: >
Recorded value: 100

Compound: O=C(O)c1cn(Cc2ccc(F)cc2)c2ccccc2c1=O [4a]
Comparison sign: >
Recorded value: 100

Compound: CCOC(=O)c1cn(Cc2ccc(F)cc2)c2ccc(OCCCN(C)C)cc2c1=O [5j]
Comparison sign: >
Recorded value: 100

Compound: O=C(O)c1cn(Cc2ccc(F)cc2)c2ccc(O)cc2c1=O [4g]
Comparison sign: =
Recorded value: 74

Compound: O=C(/C=C/c1ccc2c(c1)c(=O)c(C(=O)O)cn2Cc1ccc(F)cc1)c1ccccc1 [4k]
Comparison sign: =
Recorded value: 5.9
